Tested on: Staphylococcus aureus
assayOverview: In vitro minimum inhibitory concentration for antibacterial activity against erythromycin susceptible strain Staphylococcus aureus Smith
Format: functional
Each entry below carries its recorded MIC.

{"compound": "CC[C@H]1OC(=O)[C@H](C)[C@@H](OC(=O)Cc2ccc([N+](=O)[O-])cc2)[C@H](C)[C@@H](O[C@@H]2O[C@H](C)C[C@H](N(C)C)[C@H]2O)[C@@](C)(OC)C[C@@H](C)C(=O)[C@H](C)[C@@H](O)[C@]1(C)O", "testSystem": "Staphylococcus aureus", "MIC [µg/mL]": 0.39}
{"compound": "CC[C@H]1OC(=O)[C@H](C)[C@@H](OC(=O)Cc2cccnc2)[C@H](C)[C@@H](OC2O[C@H](C)C[C@H](N(C)C)[C@H]2O)[C@@](C)(OC)C[C@@H](C)C(=O)[C@H](C)[C@H]2NC(=O)O[C@@]21C (some centres undefined)", "testSystem": "Staphylococcus aureus", "MIC [µg/mL]": 0.2}
{"compound": "CC[C@H]1OC(=O)[C@H](C)[C@@H](OC(=O)Cc2cccnc2)[C@H](C)[C@@H](OC2O[C@H](C)C[C@H](N(C)C)[C@H]2O)[C@@](C)(O)C[C@@H](C)/C(=N\\O)[C@H](C)[C@H]2OC(=O)O[C@@]21C (some centres undefined)", "testSystem": "Staphylococcus aureus", "MIC [µg/mL]": 0.2}
{"compound": "CC[C@H]1OC(=O)[C@H](C)[C@@H](O[C@H]2C[C@@](C)(OC)[C@@H](O)[C@H](C)O2)[C@H](C)[C@@H](O[C@@H]2O[C@H](C)C[C@H](N(C)C)[C@H]2O)[C@](C)(O)C[C@@H](C)C(=O)[C@H](C)[C@@H](O)[C@]1(C)O", "testSystem": "Staphylococcus aureus", "MIC [µg/mL]": 0.2}
{"compound": "CC[C@H]1OC(=O)[C@H](C)[C@@H](OC(=O)Cc2cccnc2)[C@H](C)[C@@H](OC2O[C@H](C)C[C@H](N(C)C)[C@H]2O)[C@@](C)(OC)C[C@@H](C)/C(=N\\O)[C@H](C)[C@H]2OC(=O)O[C@@]21C (some centres undefined)", "testSystem": "Staphylococcus aureus", "MIC [µg/mL]": 0.39}
{"compound": "CC[C@H]1OC(=O)[C@H](C)[C@@H](O[C@H]2C[C@@](C)(OC)[C@@H](O)[C@H](C)O2)[C@H](C)[C@@H](O[C@@H]2O[C@H](C)C[C@H](N(C)C)[C@H]2O)[C@](C)(O)C[C@@H](C)CN(C)[C@H](C)[C@@H](O)[C@]1(C)O", "testSystem": "Staphylococcus aureus", "MIC [µg/mL]": 0.78}
{"compound": "CC[C@H]1OC(=O)[C@H](C)[C@@H](O[C@H]2C[C@@](C)(OC)[C@@H](O)[C@H](C)O2)[C@H](C)[C@@H](O[C@@H]2O[C@H](C)C[C@H](N(C)C)[C@H]2O)[C@](C)(OC)C[C@@H](C)C(=O)[C@H](C)[C@@H](O)[C@]1(C)O", "testSystem": "Staphylococcus aureus", "MIC [µg/mL]": 0.2}
{"compound": "CC[C@H]1OC(=O)[C@H](C)[C@@H](OC(=O)Cc2cccnc2)[C@H](C)[C@@H](OC2O[C@H](C)C[C@H](N(C)C)[C@H]2O)[C@@](C)(OC)C[C@@H](C)C(=O)[C@H](C)[C@H]2OC(=O)O[C@@]21C (some centres undefined)", "testSystem": "Staphylococcus aureus", "MIC [µg/mL]": 0.2}
{"compound": "CC[C@H]1OC(=O)[C@H](C)[C@@H](OC(=O)Cc2cccnc2)[C@H](C)[C@@H](OC2O[C@H](C)C[C@H](N(C)C)[C@H]2O)[C@@](C)(OC)C[C@@H](C)C(=O)[C@H](C)[C@@H](O)[C@]1(C)O (some centres undefined)", "testSystem": "Staphylococcus aureus", "MIC [µg/mL]": 0.78}
